molecular target: Cytochrome P450 3A4 (Homo sapiens, UniProt P08684); conditions: bti-tn-5b1-4; also: in other assays of this panel Not Active means under 50% inhibition at 10 µM
Sequence (P08684 whole entry): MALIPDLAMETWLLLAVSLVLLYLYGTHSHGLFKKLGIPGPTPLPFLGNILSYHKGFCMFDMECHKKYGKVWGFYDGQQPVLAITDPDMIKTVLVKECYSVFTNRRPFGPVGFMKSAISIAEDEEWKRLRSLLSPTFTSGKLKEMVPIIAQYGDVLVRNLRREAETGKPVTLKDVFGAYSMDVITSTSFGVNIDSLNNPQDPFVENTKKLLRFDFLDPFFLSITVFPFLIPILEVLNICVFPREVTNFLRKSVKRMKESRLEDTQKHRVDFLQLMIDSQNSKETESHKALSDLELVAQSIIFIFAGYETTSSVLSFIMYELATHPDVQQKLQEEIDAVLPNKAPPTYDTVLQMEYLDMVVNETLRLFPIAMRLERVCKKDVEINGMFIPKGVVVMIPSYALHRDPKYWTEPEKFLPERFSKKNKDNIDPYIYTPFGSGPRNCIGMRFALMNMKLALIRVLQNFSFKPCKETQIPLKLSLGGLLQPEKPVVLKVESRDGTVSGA
property: Ki

Check out these entries, answers already filled in.
1) CC1=NN(c2ccccc2)C(=O)C1 [EDARAVONE]
Not Active
2) O=c1[nH]c(=O)n(C2CCCO2)cc1F (stereo not drawn) [TEGAFUR]
Not Active
3) OCCOCCN1CCN(C2=Nc3ccccc3Sc3ccccc32)CC1 [QUETIAPINE]
Not Active
4) Cn1c(=O)c2c(ncn2C)n(C)c1=O [CAFFEINE]
Not Active
5) C[C@@H]1O[C@@H](O[C@H]2C[C@@H](O)[C@]3(CO)[C@H]4[C@H](O)C[C@]5(C)[C@@H](C6=CC(=O)OC6)CC[C@]5(O)[C@@H]4CC[C@]3(O)C2)[C@H](O)[C@H](O)[C@H]1O [OUABAIN]
Not Active
6) O=C(O)CC(O)(CC(=O)O)C(=O)O [CITRIC ACID]
Not Active
7) O=C(O)CCCc1cccs1
Not Active
8) CCC1=C(C)CN(C(=O)NCCc2ccc(S(=O)(=O)NC(=O)N[C@H]3CC[C@H](C)CC3)cc2)C1=O [GLIMEPIRIDE]
Not Active

Task: So what does the record say about Ki for C[S+](C)[O-] [DIMETHYL SULFOXIDE] ?
Result: Not Active

Task: And the next one, CC(=N)S [THIOACETAMIDE] ?
Result: Not Active

Task: Next: CC[C@H]1[C@@H]2C[C@H]3[C@@H]4N(C)c5ccccc5[C@]45C[C@@H]([C@@H]2[C@H]5O)N3[C@@H]1O [AJMALINE]
Result: Not Active

====

Biological target: UniProt:Q690N0
Sequence (Q690N0 whole entry): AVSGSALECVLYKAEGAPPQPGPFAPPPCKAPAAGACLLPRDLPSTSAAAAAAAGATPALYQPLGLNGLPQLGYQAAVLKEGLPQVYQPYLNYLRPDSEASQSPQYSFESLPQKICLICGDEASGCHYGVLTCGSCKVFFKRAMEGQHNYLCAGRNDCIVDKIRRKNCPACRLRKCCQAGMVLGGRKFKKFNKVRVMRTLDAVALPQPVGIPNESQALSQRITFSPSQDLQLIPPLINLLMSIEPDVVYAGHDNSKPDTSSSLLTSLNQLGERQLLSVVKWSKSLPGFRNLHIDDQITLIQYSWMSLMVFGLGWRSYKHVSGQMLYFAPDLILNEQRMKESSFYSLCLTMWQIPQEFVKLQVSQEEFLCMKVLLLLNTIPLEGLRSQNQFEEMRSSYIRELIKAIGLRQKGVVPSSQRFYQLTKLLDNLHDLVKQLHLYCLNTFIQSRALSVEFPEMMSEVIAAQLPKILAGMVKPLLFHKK
Experiment: DRUGMATRIX: Progesterone radioligand binding (ligand: [3H] R-5020)
Assay type: tissue-based, Uterus
Settings: Not Active = under 50% inhibition at 10 µM
property: IC50

1) Cc1ccc(C(=O)c2ccc(CC(=O)O)n2C)cc1
Not Active
2) CNC1=Nc2ccc(Cl)cc2C(c2ccccc2)=[N+]([O-])C1 [CHLORDIAZEPOXIDE]
Not Active
3) O=C(O)CCCc1cccs1
Not Active
4) CCCNC(=O)NS(=O)(=O)c1ccc(Cl)cc1 [CHLORPROPAMIDE]
Not Active
5) CN1C(=O)CN=C(c2ccccc2)c2cc([N+](=O)[O-])ccc21
Not Active
6) O=c1[nH]c(=O)n(C2CCCO2)cc1F (stereo not drawn)
Not Active
7) Cc1ccc(C)c(OCCCC(C)(C)C(=O)O)c1
Not Active
8) CN1CCCC(CN2c3ccccc3Sc3ccccc32)C1 (stereo not drawn)
Not Active

Task: Consider the compound shown here: Nc1ccc(S(=O)(=O)NC(=O)c2ccccc2)cc1 [SULFABENZAMIDE] What is its recorded IC50?
Result: Not Active

Task: Same again, this time with CC1CCC(NC(=O)N(CCCl)N=O)CC1 (stereo not drawn)
Result: Not Active

====

target: C-C chemokine receptor type 5 (Homo sapiens, UniProt P51681); format: cell membranes, Membrane; conditions: hek293; also: in other assays of this panel Not Active means under 50% inhibition at 10 µM
Sequence (P51681 whole entry): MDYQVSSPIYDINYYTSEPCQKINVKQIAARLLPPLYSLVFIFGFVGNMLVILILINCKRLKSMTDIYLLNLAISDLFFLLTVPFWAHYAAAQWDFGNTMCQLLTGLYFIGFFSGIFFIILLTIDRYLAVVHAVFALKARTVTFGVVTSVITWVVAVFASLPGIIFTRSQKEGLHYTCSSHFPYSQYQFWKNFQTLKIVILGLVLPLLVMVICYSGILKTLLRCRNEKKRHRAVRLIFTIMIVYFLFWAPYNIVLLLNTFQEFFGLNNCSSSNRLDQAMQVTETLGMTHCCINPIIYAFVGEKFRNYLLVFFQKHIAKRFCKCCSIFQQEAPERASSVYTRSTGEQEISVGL
property: IC50

1) CCC1=C(C)CN(C(=O)NCCc2ccc(S(=O)(=O)NC(=O)N[C@H]3CC[C@H](C)CC3)cc2)C1=O [GLIMEPIRIDE]
Not Active
2) CCCCC(=O)N(Cc1ccc(-c2ccccc2-c2nnn[nH]2)cc1)[C@H](C(=O)O)C(C)C
Not Active
3) ClC(Cl)(Cl)Cl [CARBON TETRACHLORIDE]
Not Active
4) CC[C@H]1[C@@H]2C[C@H]3[C@@H]4N(C)c5ccccc5[C@]45C[C@@H]([C@@H]2[C@H]5O)N3[C@@H]1O [AJMALINE]
Not Active
5) CN1[C@@H]2CC[C@H]1C[C@@H](OC(c1ccccc1)c1ccccc1)C2 [BENZTROPINE]
Not Active
6) COC(=O)Nc1nc2cc(C(=O)c3ccc(F)cc3)ccc2[nH]1 [FLUBENDAZOLE]
Not Active

Task: Look up IC50 for this compound: NCCCNCCSP(=O)(O)O [AMIFOSTINE]
Result: Not Active

Task: Query C[S+]([O-])c1ccc(-c2nc(-c3ccncc3)c(-c3ccc(F)cc3)[nH]2)cc1 (centres undefined) [SB-203580] next
Result: Not Active

Task: // repeat for "O=C(O)CCCc1cccs1" and report
Result: Not Active

====

molecular target: UniProt:P08684
property: pIC50
Value format note: pIC50 is -log10 of concentration (mol/L); just state the number.

Task: GET /values?readout=pIC50&item= CC(C)C[C@H]1C(=O)N2CCC[C@H]2[C@]2(O)O[C@](NC(=O)[C@@H]3C=C4c5cccc6[nH]cc(c56)C[C@H]4N(C)C3)(C(C)C)C(=O)N12 [ERGOCRYPTINE]
Result: 6.22

====

target: D(3) dopamine receptor (Homo sapiens); test: DRUGMATRIX: Dopamine D3 radioligand binding (ligand: [3H] Spiperone); assay type: cell membranes, CHO, Membrane; settings: cho; read-out: Ki
Sequence (P35462 whole entry): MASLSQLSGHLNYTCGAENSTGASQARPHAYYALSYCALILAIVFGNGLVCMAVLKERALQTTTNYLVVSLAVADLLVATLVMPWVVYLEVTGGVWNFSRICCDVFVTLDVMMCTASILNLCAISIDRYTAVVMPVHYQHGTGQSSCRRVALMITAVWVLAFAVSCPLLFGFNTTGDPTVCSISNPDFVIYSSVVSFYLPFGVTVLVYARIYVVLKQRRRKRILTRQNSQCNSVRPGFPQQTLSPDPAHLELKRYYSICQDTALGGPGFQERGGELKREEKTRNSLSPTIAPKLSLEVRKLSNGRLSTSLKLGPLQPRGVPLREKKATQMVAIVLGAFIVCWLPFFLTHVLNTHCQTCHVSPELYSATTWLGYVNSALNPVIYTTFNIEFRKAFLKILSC
property: Ki (nM)
State just the number; it will be interpreted in nM.

Task: Missing value: Ki, D(3) dopamine receptor (Homo sapiens), entry "TRANSPLATIN" . Fill in?
Result: 1130

====

target: Glucocorticoid receptor (Homo sapiens, UniProt P04150); test: biochemical; also: in other assays of this panel Not Active means under 50% inhibition at 10 µM
Sequence (P04150 whole entry): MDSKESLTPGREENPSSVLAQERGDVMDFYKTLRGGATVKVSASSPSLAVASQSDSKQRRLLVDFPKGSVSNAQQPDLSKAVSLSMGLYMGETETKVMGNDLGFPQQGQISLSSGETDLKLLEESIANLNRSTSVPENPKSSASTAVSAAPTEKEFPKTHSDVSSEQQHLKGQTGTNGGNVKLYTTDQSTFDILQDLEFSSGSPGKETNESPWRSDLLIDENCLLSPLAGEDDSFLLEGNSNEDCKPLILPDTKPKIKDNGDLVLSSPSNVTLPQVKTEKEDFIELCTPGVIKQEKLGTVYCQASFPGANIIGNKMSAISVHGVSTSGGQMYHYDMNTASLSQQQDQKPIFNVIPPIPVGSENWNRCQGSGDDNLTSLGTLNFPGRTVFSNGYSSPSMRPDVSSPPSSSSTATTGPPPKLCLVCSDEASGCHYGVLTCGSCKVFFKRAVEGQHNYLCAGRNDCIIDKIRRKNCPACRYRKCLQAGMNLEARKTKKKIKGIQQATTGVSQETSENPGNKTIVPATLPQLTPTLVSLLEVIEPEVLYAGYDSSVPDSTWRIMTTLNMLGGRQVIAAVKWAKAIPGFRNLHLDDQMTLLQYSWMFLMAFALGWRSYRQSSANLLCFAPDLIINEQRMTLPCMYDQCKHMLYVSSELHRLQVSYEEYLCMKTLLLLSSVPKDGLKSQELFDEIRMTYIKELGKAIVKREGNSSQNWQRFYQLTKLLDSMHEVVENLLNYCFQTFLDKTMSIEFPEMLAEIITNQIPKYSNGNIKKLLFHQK
property: pKi
pKi here: minus log base 10 of the concentration, concentration in moles per litre.

Task: Query the reported pKi for Glucocorticoid receptor (Homo sapiens, UniProt P04150); item: "C#C[C@]1(O)CC[C@H]2[C@@H]3CCC4=CC(=O)CC[C@]4(C)[C@H]3CC[C@@]21C"
Result: 7.02

Task: Same thing, different molecule: CC(=O)OCC(=O)[C@@]12OC(C)(C)O[C@@H]1C[C@H]1[C@@H]3C[C@H](F)C4=CC(=O)C=C[C@]4(C)[C@@]3(F)[C@@H](O)C[C@@]12C [FLUOCINONIDE]
Result: 8.62

Task: // repeat for "C[C@]12C=CC(=O)C=C1CC[C@H]1[C@@H]3C[C@@H](O)[C@](O)(C(=O)CO)[C@@]3(C)C[C@H](O)[C@@]12F" and report
Result: 7.59

Task: Record: "C[C@]12CC[C@@H]3c4ccc(O)cc4CC[C@H]3[C@@H]1C[C@@H](O)[C@@H]2O"
Result: 4.75

====

target: Interstitial collagenase (Homo sapiens, UniProt P03956); experiment: biochemical; type: tissue-based, Rheumatoid synovial fibroblasts;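 also: MMP-1 enzyme inhibition assay using a peptide substrate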; also: in other assays of this panel Not Active means under 50% inhibition at 10 µM
Sequence (P03956 whole entry): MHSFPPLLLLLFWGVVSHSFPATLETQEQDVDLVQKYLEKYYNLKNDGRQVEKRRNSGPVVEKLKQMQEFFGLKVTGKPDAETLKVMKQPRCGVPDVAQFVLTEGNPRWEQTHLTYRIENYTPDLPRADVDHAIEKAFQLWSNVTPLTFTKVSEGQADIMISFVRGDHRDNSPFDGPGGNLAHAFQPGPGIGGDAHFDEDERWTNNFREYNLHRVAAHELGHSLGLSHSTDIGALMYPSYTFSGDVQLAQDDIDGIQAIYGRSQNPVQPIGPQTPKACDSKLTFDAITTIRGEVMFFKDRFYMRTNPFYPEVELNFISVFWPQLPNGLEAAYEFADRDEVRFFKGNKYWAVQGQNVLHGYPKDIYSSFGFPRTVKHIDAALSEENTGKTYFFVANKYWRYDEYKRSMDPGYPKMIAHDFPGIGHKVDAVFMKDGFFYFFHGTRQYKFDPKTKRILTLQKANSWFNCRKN
property: IC50

The cases that follow already have their IC50 on record.
1) Oc1ccc2c3c1O[C@H]1[C@@H](O)CC[C@@]4(O)[C@@H](C2)N(CC2CCC2)CC[C@]314
Not Active
2) C[N+](C)(C)C[C@H](O)CC(=O)[O-]
Not Active
3) O=C(O)c1cc(-c2ccc(F)cc2F)ccc1O
Not Active
4) C[C@H]1O[C@H](O[C@H]2[C@H](O)[C@@H](O)[C@@H](O[C@H]3[C@H](O)[C@@H](O)C(O)O[C@@H]3CO)O[C@@H]2CO)[C@H](O)[C@@H](O)[C@@H]1N[C@H]1C=C(CO)[C@@H](O)[C@H](O)[C@H]1O (stereo partly drawn)
Not Active
5) ClC(Cl)(Cl)Cl [CARBON TETRACHLORIDE]
Not Active
6) C[C@]12CC[C@H]3[C@@H](CCC4=CC(=O)CC[C@@H]43)[C@@H]1CC[C@@H]2O
Not Active
7) COc1ccc2c(c1OC)C(=O)O[C@@H]2[C@H]1c2c(cc3c(c2OC)OCO3)CCN1C
Not Active
8) O=C(c1ccccc1F)N1CCC(Cc2ccccc2)CC1
Not Active
9) CCN(C(C)=O)c1cccc(-c2ccnc3c(C#N)cnn23)c1
Not Active
10) CCOC(=O)c1ncn2c1CN(C)C(=O)c1cc(F)ccc1-2
Not Active

Task: Given the entry "O=C(O)COc1ccc(C(=O)c2cccs2)c(Cl)c1Cl" , report its measured IC50.
Result: Not Active

Task: Same lookup for CCN(CC)CCCC(C)Nc1c2ccc(Cl)cc2nc2ccc(OC)cc12 (stereo not drawn) , please.
Result: Not Active

Task: How about "COc1ccccc1N" ?
Result: Not Active
